TARGET: human Nav1.7 (Homo sapiens, UniProt Q15858)
Sequence (Q15858 whole entry): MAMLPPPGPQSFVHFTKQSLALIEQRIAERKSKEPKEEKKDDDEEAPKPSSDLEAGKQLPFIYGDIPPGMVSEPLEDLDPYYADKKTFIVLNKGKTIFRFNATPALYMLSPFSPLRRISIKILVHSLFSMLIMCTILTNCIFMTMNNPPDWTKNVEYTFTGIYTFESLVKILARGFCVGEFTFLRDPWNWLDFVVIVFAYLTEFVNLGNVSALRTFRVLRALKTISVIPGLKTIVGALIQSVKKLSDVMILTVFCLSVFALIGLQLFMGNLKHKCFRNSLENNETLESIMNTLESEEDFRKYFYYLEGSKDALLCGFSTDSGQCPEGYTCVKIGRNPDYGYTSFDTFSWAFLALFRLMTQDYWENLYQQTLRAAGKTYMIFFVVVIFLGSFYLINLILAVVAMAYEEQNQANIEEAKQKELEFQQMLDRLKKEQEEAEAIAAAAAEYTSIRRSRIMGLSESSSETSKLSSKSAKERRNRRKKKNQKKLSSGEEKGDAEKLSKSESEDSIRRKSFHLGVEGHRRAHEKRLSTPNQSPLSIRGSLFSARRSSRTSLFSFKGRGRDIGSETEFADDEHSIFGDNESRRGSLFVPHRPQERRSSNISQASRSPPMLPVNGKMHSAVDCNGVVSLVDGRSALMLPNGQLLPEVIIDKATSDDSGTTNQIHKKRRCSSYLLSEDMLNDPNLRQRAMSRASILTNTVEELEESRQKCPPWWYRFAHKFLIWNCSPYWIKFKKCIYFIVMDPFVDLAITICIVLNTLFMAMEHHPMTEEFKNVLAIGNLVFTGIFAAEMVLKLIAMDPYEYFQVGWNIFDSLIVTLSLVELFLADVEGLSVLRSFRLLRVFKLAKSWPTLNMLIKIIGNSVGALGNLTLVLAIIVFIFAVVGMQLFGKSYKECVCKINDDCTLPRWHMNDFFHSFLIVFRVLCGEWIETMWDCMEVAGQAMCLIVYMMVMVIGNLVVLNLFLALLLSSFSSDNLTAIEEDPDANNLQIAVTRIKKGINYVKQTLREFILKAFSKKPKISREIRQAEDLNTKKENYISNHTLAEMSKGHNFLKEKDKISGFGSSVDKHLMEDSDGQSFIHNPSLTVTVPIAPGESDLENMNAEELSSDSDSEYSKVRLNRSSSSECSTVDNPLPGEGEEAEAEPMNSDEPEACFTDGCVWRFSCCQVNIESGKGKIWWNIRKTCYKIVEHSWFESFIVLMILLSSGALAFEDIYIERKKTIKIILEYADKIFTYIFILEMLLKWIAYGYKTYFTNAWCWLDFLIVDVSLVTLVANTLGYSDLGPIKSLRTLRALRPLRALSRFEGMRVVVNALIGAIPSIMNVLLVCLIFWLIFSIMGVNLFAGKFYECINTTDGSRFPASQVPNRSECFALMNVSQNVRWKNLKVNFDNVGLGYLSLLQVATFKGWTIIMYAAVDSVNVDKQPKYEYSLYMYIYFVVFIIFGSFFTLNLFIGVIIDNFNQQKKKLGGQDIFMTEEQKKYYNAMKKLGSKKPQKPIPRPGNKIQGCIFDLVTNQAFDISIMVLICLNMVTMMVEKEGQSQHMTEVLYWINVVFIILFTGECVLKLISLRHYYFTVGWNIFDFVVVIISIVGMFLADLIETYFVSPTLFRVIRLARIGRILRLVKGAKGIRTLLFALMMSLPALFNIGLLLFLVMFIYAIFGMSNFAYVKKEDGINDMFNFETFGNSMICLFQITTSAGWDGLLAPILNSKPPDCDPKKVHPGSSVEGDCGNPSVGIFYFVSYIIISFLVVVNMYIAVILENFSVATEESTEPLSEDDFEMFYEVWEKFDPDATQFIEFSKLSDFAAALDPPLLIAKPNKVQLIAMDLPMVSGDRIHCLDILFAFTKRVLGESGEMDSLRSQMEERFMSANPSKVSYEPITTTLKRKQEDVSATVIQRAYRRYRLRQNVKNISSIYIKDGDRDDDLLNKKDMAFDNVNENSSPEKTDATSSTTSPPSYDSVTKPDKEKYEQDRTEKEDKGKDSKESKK
MEASUREMENT_PROTOCOL: Nav 1.7 In Vitro PX Assay (PatchXpress whole cell voltage clamp, partially inactivated state)
REPORTED_CONDITIONS: HEK 293 cells stably transfected with human Nav1.7, holding potential yielding 20 to 50% inactivation, read-out: hNav1.7 PX IC50
hey, just use t if measured IC50 is less than 0.7 µM, otherwise f

COMPOUND	CATEGORY_LABEL
COc1cc(CCC(F)(F)F)c(F)cc1-n1c(=O)ccc2cc(S(=O)(=O)Nc3ccon3)ccc21 (atropisomer, axis not shown; (P))	t
COc1cc(CCC(F)(F)F)c(F)cc1-n1c(=O)ccc2cc(S(=O)(=O)Nc3cccnn3)ccc21 (atropisomer, axis not shown; (P))	f
COc1cc(CC(F)(F)F)c(F)cc1-n1c(=O)ccc2cc(S(=O)(=O)Nc3ccon3)ccc21 (atropisomer, axis not shown; (P)) [Example 6B]	t
COc1cc(CC(F)(F)F)c(F)cc1-n1c(=O)ccc2cc(S(=O)(=O)Nc3ccon3)ccc21 (racemic) [Example 6A]	t
COc1cc(CCCC(F)(F)F)c(F)cc1-n1c(=O)ccc2cc(S(=O)(=O)Nc3ccon3)ccc21 (atropisomer, axis not shown; (P))	f
COc1cc(CCC(F)(F)F)c(Cl)cc1-n1c(=O)ccc2cc(S(=O)(=O)Nc3ccon3)ccc21 (atropisomer, axis not shown; (P))	t

* * *

TARGET: hNav1.7 (Homo sapiens)
Sequence (Q15858 whole entry): as above
MEASUREMENT_PROTOCOL: Nav 1.7 IWQ In Vitro Assay (IonWorks Quattro population patch-clamp)
REPORTED_CONDITIONS: HEK 293 cells stably transfected with Nav 1.7, 26th pulse to -20 mV
pIC50: −log10 of the molar value.

COMPOUND	TARGET	pIC50
COc1cc(CCCC(F)(F)F)c(F)cc1-n1c(=O)ccc2cc(S(=O)(=O)Nc3ccon3)ccc21 (atropisomer, axis not shown; (P))	hNav1.7 (Homo sapiens)	8.70
COc1cc(CCC(F)(F)F)c(F)cc1-n1c(=O)ccc2cc(S(=O)(=O)Nc3cccnn3)ccc21 (atropisomer, axis not shown; (P))	hNav1.7 (Homo sapiens)	8.70
COc1cc(CC(F)(F)F)c(F)cc1-n1c(=O)ccc2cc(S(=O)(=O)Nc3ccon3)ccc21 (racemic) [Example 6A]	hNav1.7 (Homo sapiens)	8.75
COc1cc(CCC(F)(F)F)c(Cl)cc1-n1c(=O)ccc2cc(S(=O)(=O)Nc3ccon3)ccc21 (atropisomer, axis not shown; (P))	hNav1.7 (Homo sapiens)	8.30
COc1cc(C[C@@H](C)C(F)(F)F)c(F)cc1-n1c(=O)ccc2cc(S(=O)(=O)Nc3ccon3)ccc21 (racemic)	hNav1.7 (Homo sapiens)	7.92
COc1cc(CC(F)(F)F)c(F)cc1-n1c(=O)ccc2cc(S(=O)(=O)Nc3ccon3)ccc21 (atropisomer, axis not shown; (P)) [Example 6B]	hNav1.7 (Homo sapiens)	8.28
COc1cc(CCC(F)(F)F)c(F)cc1-n1c(=O)ccc2cc(S(=O)(=O)Nc3ccon3)ccc21 (atropisomer, axis not shown; (P))	hNav1.7 (Homo sapiens)	8.70

* * *

Entries and their HLM in vitro values follow.
MEASUREMENT_PROTOCOL: HLM in vitro
Format: in vitro ADME, human

COMPOUND	HLM in vitro
COc1cc(CCC(F)(F)F)c(F)cc1-n1c(=O)ccc2cc(S(=O)(=O)Nc3ccon3)ccc21 (atropisomer, axis not shown; (P))	<14.0 [2] μL/(min · mg)
COc1cc(CCCC(F)(F)F)c(F)cc1-n1c(=O)ccc2cc(S(=O)(=O)Nc3ccon3)ccc21 (atropisomer, axis not shown; (P))	<14.0 µL/min/mg
COc1cc(CC(F)(F)F)c(F)cc1-n1c(=O)ccc2cc(S(=O)(=O)Nc3ccon3)ccc21 (atropisomer, axis not shown; (P)) [Example 6B]	<14.0 µL/min/mg
